Entry source: paper PMC12155096

- TEST TARGET: human CYP1A2 (Homo sapiens)
- Sequence (P05177 1-516): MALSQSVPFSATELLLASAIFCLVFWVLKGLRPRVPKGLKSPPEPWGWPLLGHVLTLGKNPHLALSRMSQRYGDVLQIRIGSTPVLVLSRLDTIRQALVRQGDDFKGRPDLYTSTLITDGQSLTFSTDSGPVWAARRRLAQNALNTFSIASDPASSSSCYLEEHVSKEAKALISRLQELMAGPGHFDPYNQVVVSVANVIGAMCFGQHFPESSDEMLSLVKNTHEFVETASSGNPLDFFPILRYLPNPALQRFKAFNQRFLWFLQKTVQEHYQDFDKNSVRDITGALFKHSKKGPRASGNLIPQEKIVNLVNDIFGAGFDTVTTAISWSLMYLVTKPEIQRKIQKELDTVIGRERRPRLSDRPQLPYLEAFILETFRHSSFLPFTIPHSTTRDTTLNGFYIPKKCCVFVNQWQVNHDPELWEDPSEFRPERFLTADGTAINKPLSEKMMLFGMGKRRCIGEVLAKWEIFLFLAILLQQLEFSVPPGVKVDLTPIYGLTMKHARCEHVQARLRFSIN
READOUT TYPE: AC50
Answer format reminder: number followed by unit.

Here COC(=O)CCCCCCCC(=O)OC [Dimethyl nonanedioate] was tested on human CYP1A2 (Homo sapiens), and its AC50 came to 40.1 µM

Here OCc1cccc(Oc2ccccc2)c1 [3-Phenoxybenzenemethanol] was tested on human CYP1A2 (Homo sapiens), and its AC50 came to 38.5 µM

Here Cc1ccc([N+](=O)[O-])c(N)c1 [5-Methyl-2-nitroaniline] was tested on human CYP1A2 (Homo sapiens), and its AC50 came to 19.2 µM

Here CC1=Nc2ccc3ccccc3c2C1(C)C [1,1,2-Trimethyl-1H-benzo[e]indole] was tested on human CYP1A2 (Homo sapiens), and its AC50 came to 26.7 µM

Here CC(C)(C)c1ccc(OP(=O)(Oc2ccccc2)Oc2ccccc2)cc1 [tert-Butylphenyl diphenyl phosphate] was tested on human CYP1A2 (Homo sapiens), and its AC50 came to 18 µM

Here O=C(C=Cc1ccccc1)OCCc1ccccc1 [2-Phenylethyl 3-phenylprop-2-enoate] was tested on human CYP1A2 (Homo sapiens), and its AC50 came to 6.35 µM
